B1: Peroxisome proliferator-activated receptor delta, residues 71 to 145; numbered along this chain, Q03181 (parent)
chain: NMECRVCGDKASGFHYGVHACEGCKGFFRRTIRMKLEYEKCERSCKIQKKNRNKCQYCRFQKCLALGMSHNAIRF

Variants of: B1
Assay: abundance fitness (aPCA) (normalised: wild type 0, dead -1); higher = more abundant; growth selection in yeast, the domain comes from the species named
Settings: Homo sapiens
Reported Endpoint: abundance fitness
Please respond with just the number, no unit label.

Guide cases for abundance fitness, answers given:
- Ordered Residues: "NMECRVCGDKASGFHYGVHACEGCKGFFRRTIRMKLEYEKCERSCKIQKKNRNKCQYCRQQKCLALGMSHNAIRF"
  abundance fitness: -1.04
- Ordered Residues: "NMECRVCGDKASGFHYGVHACEGCKGFFRRTIRMKLEYEKCERSCKIQKKNRNKCQYCRFQKCLALRMSHNAIRF"
  abundance fitness: -0.584
- Ordered Residues: "NMECRVCGDKASGFHYGVHACEGCKGFFRRTIRMKEEYEKCERSCKIQKKNRNKCQYCRFQKCLALGMSHNAIRF"
  abundance fitness: -0.109

Query: Reported abundance fitness for `NMECRVCGDKASGFHYGVHACEGCMGFFRRTIRMKLEYEKCERSCKIQKKNRNKCQYCRFQKCLALGMSHNAIRF` : what is it?
Response: 0.188

Query: Reported abundance fitness for `NMECRVCGDKASGFHYGVHACEGCKGFFRRTIRMKLEYEKCERSCKIQKWNRNKCQYCRFQKCLALGMSHNAIRF` : what is it?
Response: -0.056

Query: Reported abundance fitness for `NMECRVCGDKASGFHYGVHACEGCKGFFRRTIRMKLEYEKCEKSCKIQKKNRNKCQYCRFQKCLALGMSHNAIRF` : what is it?
Response: 0.078

Query: Reported abundance fitness for `NMECRVCGDKASGFHYGVHACEGCKGFFRRTIRMKLEYEKCERSCKIQKKNRNKCQYCRFQKCLALGRSHNAIRF` : what is it?
Response: -0.698

Query: Reported abundance fitness for `NMECRVCGDKASGFHYGVHACECCKGFFRRTIRMKLEYEKCERSCKIQKKNRNKCQYCRFQKCLALGMSHNAIRF` : what is it?
Response: 0.071

Query: Reported abundance fitness for `NMECRVCGDKASGFHYGVHACEGCKGFFRRTIRMKLEYEKCERSCKIQKKNRNKCYYCRFQKCLALGMSHNAIRF` : what is it?
Response: -0.116
